Tested on: differentiated human THP-1 cells
Assay: stimulated release of TNF-α from differentiated human THP-1 cells (ELISA, dose-response)
Type: cell-based
Conditions: Homo sapiens, THP-1, table of 133-139 (two lipid side chains), human THP-1 cells; read-out: EC50 (nM) (THP-1)
Consider the following compounds and their measured EC50 readings.
Please make sure the unit comes right after the number.

Examples with their reported EC50 follow.
1. CCCCNC(=O)[C@@H]1CN(C(=O)c2ccc(C(=O)N3C[C@@H](C(=O)N[C@H]4C[C@@H]4c4ccccc4)[C@H](C(=O)N[C@H]4C[C@@H]4c4ccccc4)C3)cc2)C[C@H]1C(=O)NCCCC [Compound 139] | 50 nM
2. CCCCCCCCCCCCCCNC(=O)[C@@H]1CN(C(=O)c2ccc(C(=O)N3C[C@@H](C(=O)N[C@H]4C[C@@H]4c4ccccc4)[C@H](C(=O)N[C@H]4C[C@@H]4c4ccccc4)C3)cc2)C[C@H]1C(=O)NCCCCCCCCCCCCCC [Compound 134] | 1.3 nM

Turning now to a further record.
Short answer for CCCCCCCCCCNC(=O)[C@@H]1CN(C(=O)c2ccc(C(=O)N3C[C@@H](C(=O)N[C@H]4C[C@@H]4c4ccccc4)[C@H](C(=O)N[C@H]4C[C@@H]4c4ccccc4)C3)cc2)C[C@H]1C(=O)NCCCCCCCCCC [Compound 136] : EC50 was 0.28 nM

src = patent US11040959B2
